SUBJECT_OF_TEST: human leukocyte 5-lipoxygenase (Homo sapiens, UniProt P09917)
Construct: endogenous in cells; host or cells: leukocytes from fresh human blood
Sequence (P09917 whole entry): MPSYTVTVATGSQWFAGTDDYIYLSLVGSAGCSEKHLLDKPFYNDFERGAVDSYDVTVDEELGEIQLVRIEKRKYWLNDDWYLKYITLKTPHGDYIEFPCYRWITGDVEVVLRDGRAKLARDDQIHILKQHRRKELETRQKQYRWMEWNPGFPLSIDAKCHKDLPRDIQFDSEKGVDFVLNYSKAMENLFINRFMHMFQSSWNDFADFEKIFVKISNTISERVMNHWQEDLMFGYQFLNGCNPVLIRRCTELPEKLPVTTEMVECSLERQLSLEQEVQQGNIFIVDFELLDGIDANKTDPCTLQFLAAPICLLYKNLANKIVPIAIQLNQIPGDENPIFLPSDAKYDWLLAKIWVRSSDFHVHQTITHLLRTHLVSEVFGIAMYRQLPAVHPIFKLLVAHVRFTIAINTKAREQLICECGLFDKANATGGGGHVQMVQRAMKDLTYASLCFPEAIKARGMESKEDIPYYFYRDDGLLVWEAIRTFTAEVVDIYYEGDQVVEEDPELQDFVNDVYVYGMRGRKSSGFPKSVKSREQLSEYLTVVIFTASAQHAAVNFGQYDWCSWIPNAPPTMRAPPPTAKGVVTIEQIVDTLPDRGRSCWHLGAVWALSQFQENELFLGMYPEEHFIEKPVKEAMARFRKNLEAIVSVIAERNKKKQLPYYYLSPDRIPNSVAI
ASSAY_PROCEDURE: 5-Lipoxygenase assay in human leukocytes, formation of 5-HETE (5LOA; 5LOA1 or 5LOA2 not specified)
Assay type: cell-based
RECORDED_CONDITIONS: 5.00 E -6 M

[
  {
    "COMPOUND": "O=C(Nc1ccc(CCc2ccc(Cl)c(Cl)c2)cc1)c1sc2ccccc2c1O",
    "5LOA, % Inhibition (%)": 36.0
  },
  {
    "COMPOUND": "O=C(Nc1ccc(CCc2ccc(Cl)c(Cl)c2)cc1)C(=O)c1oc2cc3ccccc3cc2c1O",
    "5LOA, % Inhibition (%)": 6.3
  },
  {
    "COMPOUND": "COc1c(C(=O)Nc2ccc(CCc3ccc(Cl)c(Cl)c3)cc2)sc2ccccc12",
    "5LOA, % Inhibition (%)": 5.5
  }
]

###

SUBJECT_OF_TEST: Human Leukocyte Lipoxygenase
ASSAY_PROCEDURE: Human Leukocyte Lipoxygenase Assay (LDA-H)
RECORDED_CONDITIONS: conjugated diene at 234 nm, pH 9.0, 24 °C; read-out: LDAH, concentration for 50% inhibition (IC)
# IC50 per record follows

[
  {
    "COMPOUND": "O=C(Nc1ccc(CCCc2ccc(O)c(O)c2)cc1)C1CS(=O)(=O)c2ccccc2C1=O (centres unmarked) [Example 22]",
    "UNITS_LABEL": "µM",
    "IC50": 13
  },
  {
    "COMPOUND": "CCCCCCCCCCc1ccc(NC(=O)C(=O)c2oc3cc(OC)c(OC)cc3c2O)cc1 [Example 119]",
    "UNITS_LABEL": "µM",
    "IC50": 0.0079
  }
]

###

SUBJECT_OF_TEST: human leukocyte 5-lipoxygenase (Homo sapiens, UniProt P09917)
Construct: endogenous in cells; host or cells: leukocytes from fresh human blood
ASSAY_PROCEDURE: 5-Lipoxygenase assay in human leukocytes, formation of 5-HETE (5LOA; 5LOA1 or 5LOA2 not specified)
Format: cell-based
RECORDED_CONDITIONS: 2.00 E -5 M
RESULT_TYPE: 5LOA, % Inhibition (%)

[
  {
    "COMPOUND": "O=C(Nc1ccc(CCc2ccc(Cl)c(Cl)c2)cc1)C(=O)c1oc2cc3ccccc3cc2c1O",
    "RESULT_TYPE": "5LOA, % Inhibition",
    "MEASURED": 33.7
  },
  {
    "COMPOUND": "COc1c(C(=O)Nc2ccc(CCc3ccc(Cl)c(Cl)c3)cc2)sc2ccccc12",
    "RESULT_TYPE": "5LOA, % Inhibition",
    "MEASURED": 13.8
  },
  {
    "COMPOUND": "O=C(Nc1ccc(CCc2cc(C(F)(F)F)cc(C(F)(F)F)c2)cc1)c1sc2ccccc2c1O",
    "RESULT_TYPE": "5LOA, % Inhibition",
    "MEASURED": 19.0
  },
  {
    "COMPOUND": "O=C(Nc1ccc(CCc2ccc(Cl)c(Cl)c2)cc1)c1sc2ccccc2c1O",
    "RESULT_TYPE": "5LOA, % Inhibition",
    "MEASURED": 42.5
  },
  {
    "COMPOUND": "O=C(Nc1ccc(CCc2ccc(Cl)c(Cl)c2)cc1)C(=O)C1=C(O)c2ccccc2OC1",
    "RESULT_TYPE": "5LOA, % Inhibition",
    "MEASURED": 10.1
  },
  {
    "COMPOUND": "COc1ccc(CCc2ccc(NC(=O)C(=O)c3[nH]c4cc(C)c(C)cc4c3O)cc2)cc1OC",
    "RESULT_TYPE": "5LOA, % Inhibition",
    "MEASURED": 2.0
  }
]

###

SUBJECT_OF_TEST: human leukocyte 5-lipoxygenase (Homo sapiens, UniProt P09917)
Construct: endogenous in cells; host or cells: leukocytes from fresh human blood
ASSAY_PROCEDURE: 5-Lipoxygenase assay in human leukocytes, formation of 5-HETE (5LOA; 5LOA1 or 5LOA2 not specified)
Type: cell-based
RECORDED_CONDITIONS: 4.00 E -5 M

[
  {
    "COMPOUND": "O=C(Nc1ccc(CCc2ccc(Cl)c(Cl)c2)cc1)C(=O)C1=C(O)c2ccccc2OC1 [Example 155]",
    "5LOA, % Inhibition / %": 2.3
  },
  {
    "COMPOUND": "CCCCCCCCCCc1ccc(NC(=O)C(=O)C2=C(O)c3ccccc3OC2)cc1 [Example 151]",
    "5LOA, % Inhibition / %": 18.0
  },
  {
    "COMPOUND": "COc1ccc(CCc2ccc(NC(=O)C(=O)C3=C(O)c4ccccc4OC3)cc2)cc1OC [Example 152]",
    "5LOA, % Inhibition / %": 76.3
  },
  {
    "COMPOUND": "O=C(Nc1ccc(CCc2ccc(C(F)(F)F)cc2)cc1)C1CS(=O)(=O)c2ccccc2C1=O (stereo not shown) [Example 44]",
    "5LOA, % Inhibition / %": 30.0
  }
]

###

SUBJECT_OF_TEST: leukotriene receptor (Cavia porcellus)
Construct: Two pairs of lungs (1.3 g) from freshly sacrificed 300 g male guinea pigs; tissue Kuiper Rabbit Farm, Gary, Ind; (animals); host or cells: guinea pig lung, crude membranes
Sequence (Q2NNR5 whole entry): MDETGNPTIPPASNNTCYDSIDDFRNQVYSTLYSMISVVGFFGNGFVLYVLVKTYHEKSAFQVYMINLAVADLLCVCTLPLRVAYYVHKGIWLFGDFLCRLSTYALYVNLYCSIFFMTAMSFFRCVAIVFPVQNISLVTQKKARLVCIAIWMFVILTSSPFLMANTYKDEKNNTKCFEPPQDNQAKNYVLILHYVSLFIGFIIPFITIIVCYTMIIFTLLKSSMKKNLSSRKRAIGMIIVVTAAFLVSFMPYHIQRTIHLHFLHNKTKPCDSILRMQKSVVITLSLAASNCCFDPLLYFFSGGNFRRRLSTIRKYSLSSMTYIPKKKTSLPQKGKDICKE
ASSAY_PROCEDURE: Binding of 3H-Leukotriene D4 to Guinea Pig Lung Membranes (RBL)
RECORDED_CONDITIONS: 1.00 E -4 M
Param threshold (10%) applies to RBL, % Inhibition; output label 1 when value >= threshold, label 0 when value < threshold.

[
  {
    "COMPOUND": "CCCCCCCCCCc1ccc(NC(=O)C(=O)c2sc3ccc(Cl)cc3c2O)cc1",
    "LABEL": "label 1"
  },
  {
    "COMPOUND": "O=C(Nc1ccc(CCc2ccc(Cl)cc2)cc1)c1sc2ccccc2c1O",
    "LABEL": "label 1"
  },
  {
    "COMPOUND": "COc1c(C(=O)Nc2ccc(CCc3ccc(Cl)c(Cl)c3)cc2)sc2ccccc12",
    "LABEL": "label 0"
  },
  {
    "COMPOUND": "O=C(Nc1ccc(CCc2ccc(Cl)cc2)cc1)C(=O)c1sc2ccccc2c1O",
    "LABEL": "label 1"
  },
  {
    "COMPOUND": "O=C(O)c1ccc(CCc2ccc(NC(=O)C3CS(=O)(=O)c4ccccc4C3=O)cc2)cc1 (stereo not shown)",
    "LABEL": "label 0"
  },
  {
    "COMPOUND": "O=C(Nc1ccc(CCc2ccc(Cl)c(Cl)c2)cc1)C(=O)c1sc2ccccc2c1O",
    "LABEL": "label 1"
  },
  {
    "COMPOUND": "COc1ccc(CCc2ccc(NC(=O)C(=O)c3sc4ccc(Cl)cc4c3O)cc2)cc1OC",
    "LABEL": "label 1"
  }
]

###

SUBJECT_OF_TEST: human leukocyte 5-lipoxygenase (Homo sapiens)
Construct: endogenous in cells; host or cells: leukocytes from fresh human blood
ASSAY_PROCEDURE: 5-Lipoxygenase assay in human leukocytes, formation of 5-HETE (5LOA; 5LOA1 or 5LOA2 not specified)
Type: cell-based
RECORDED_CONDITIONS: 1.00 E -5 M
RESULT_TYPE: 5LOA, % Inhibition (%)

[
  {
    "COMPOUND": "CCCCCCCCCCc1ccc(NC(=O)C(=O)C2=C(O)c3ccccc3OC2)cc1",
    "RESULT_TYPE": "5LOA, % Inhibition",
    "MEASURED": 13.9
  },
  {
    "COMPOUND": "COc1ccc(CCc2ccc(NC(=O)C(=O)c3[nH]c4cc(C)c(C)cc4c3O)cc2)cc1OC",
    "RESULT_TYPE": "5LOA, % Inhibition",
    "MEASURED": 7.0
  },
  {
    "COMPOUND": "COc1ccc(CCc2ccc(NC(=O)C(=O)C3=C(O)c4ccccc4OC3)cc2)cc1OC",
    "RESULT_TYPE": "5LOA, % Inhibition",
    "MEASURED": 23.0
  },
  {
    "COMPOUND": "O=C(Nc1ccc(CCc2ccc(Cl)c(Cl)c2)cc1)C(=O)c1oc2cc3ccccc3cc2c1O",
    "RESULT_TYPE": "5LOA, % Inhibition",
    "MEASURED": 15.3
  }
]

###

# 5LOA, % Inhibition per record follows
SUBJECT_OF_TEST: human leukocyte 5-lipoxygenase (Homo sapiens, UniProt P09917)
Construct: endogenous in cells; host or cells: leukocytes from fresh human blood
ASSAY_PROCEDURE: 5-Lipoxygenase assay in human leukocytes, formation of 5-HETE (5LOA; 5LOA1 or 5LOA2 not specified)
Format: cell-based
RECORDED_CONDITIONS: 5.00 E -6 M
Protocol: To Evaluate the Effect of Each Compounds as a 5-Lipoxygenase Inhibitor in Comparison to Standard Reference Agents in Human Leukocytes (5LOAl) […] Leukocyte cells in suspension (0.98 ml) are incubated with or without test compounds for five minutes at 37° C. in a shaking water bath. […] Methanol (0.5 ml) is added to dissolve the radioactivity adsorbed to the silica gel and scintillation fluid (H.P., Beckman), 5 ml is then added and vials are counted in a liquid scintillation counter. […]

[
  {
    "COMPOUND": "O=C(Nc1ccc(CCc2ccc(Cl)c(Cl)c2)cc1)C(=O)c1sc2ccccc2c1O [Example 136]",
    "SUBJECT_OF_TEST": "human leukocyte 5-lipoxygenase (Homo sapiens, UniProt P09917)",
    "5LOA, % Inhibition": "+1.4%"
  },
  {
    "COMPOUND": "O=C(Nc1ccc(CCc2ccc(Cl)c(Cl)c2)cc1)C(=O)C1=C(O)c2ccccc2OC1 [Example 155]",
    "SUBJECT_OF_TEST": "human leukocyte 5-lipoxygenase (Homo sapiens, UniProt P09917)",
    "5LOA, % Inhibition": "+7.6%"
  },
  {
    "COMPOUND": "O=C(Nc1ccc(CCc2cc(C(F)(F)F)cc(C(F)(F)F)c2)cc1)c1sc2ccccc2c1O [Example 148]",
    "SUBJECT_OF_TEST": "human leukocyte 5-lipoxygenase (Homo sapiens, UniProt P09917)",
    "5LOA, % Inhibition": "+7.3%"
  }
]
